Origin of values: ChEMBL document CHEMBL4321783

system: Enterococcus faecalis; experiment: Antibacterial activity against Enterococcus faecalis UNT-047 expressing ermB by broth microdilution method; format: functional

# molecular.string, tested.target, MIC
data = [
    ("CC[C@H]1OC(=O)[C@H](C)[C@@H](O[C@H]2C[C@@](C)(OC)[C@@H](O)[C@H](C)O2)[C@H](C)[C@@H](O[C@@H]2O[C@H](C)C[C@H](N(C)C)[C@H]2O)[C@](C)(O)C[C@@H](C)C(=O)[C@H](C)[C@@H](O)[C@]1(C)O", "Enterococcus faecalis", "> 256 µg/mL"),
    ("CC[C@H]1OC(=O)[C@H](C)C(=O)[C@H](C)[C@@H](O[C@@H]2O[C@H](C)C[C@H](N(C)C)[C@H]2O)[C@](C)(OC)C[C@@H](C)CN[C@H](C)[C@@H]2N(CCCCn3cc(-c4cccc(N)c4)nn3)C(=O)O[C@@]21C", "Enterococcus faecalis", "> 64 µg/mL"),
    ("CO[C@]1(C)C[C@@H](C)CN[C@H](C)[C@@H]2N(CCCCn3cc(-c4cccc(N)c4)nn3)C(=O)O[C@]2(C)[C@@H](CCF)OC(=O)[C@H](C)C(=O)[C@H](C)[C@H]1O[C@@H]1O[C@H](C)C[C@H](N(C)C)[C@H]1O", "Enterococcus faecalis", "> 64 µg/mL"),
    ("CC[C@H]1OC(=O)[C@@](C)(F)C(=O)[C@H](C)[C@@H](O[C@@H]2O[C@H](C)C[C@H](N(C)C)[C@H]2O)[C@](C)(OC)C[C@@H](C)C(=O)[C@H](C)[C@@H]2N(CC#CCn3cc(-c4cccc(N)n4)nn3)C(=O)O[C@@]21C", "Enterococcus faecalis", "1 µg/mL"),
]
